- assay_text: Pharmacokinetics after i.v. or oral dose in dogs
- Assay type: in vivo, beagle dogs
- particulars: beagle, dog, serum, po, 10 mg/kg, NDMC p.o. 10 mg/kg vs i.v. 1 mg/kg, read-out: BA (oral bioavailability)
observable: bioavailability (%)
Answer with a number only, understood to be in %.

bioavailability reported for this compound Clc1ccc2c(c1)N=C(N1CCNCC1)c1ccccc1N2 : 44

----------
- assay_text: Pharmacokinetics after single i.v. or oral dose in rats
- Assay type: in vivo, Sprague-Dawley rats
- particulars: male, Sprague-Dawley, rat, serum, po, 10 mg/kg, after clozapine p.o. 10 mg/kg, read-out: Cmax of compound measured
observable: Cmax (ng/mL)
Answer with a number only, understood to be in ng/mL.

Cmax reported for this molecule Clc1ccc2c(c1)N=C(N1CCNCC1)c1ccccc1N2 : 194

----------
- assay_text: Brain-to-plasma ratio in rats
- Type: in vivo
- particulars: male, Sprague-Dawley, rat, po, 10 mg/kg, brain-to-plasma ratio of NDMC, 60 minutes after oral 10 mg/kg NDMC
observable: Kp at 1 h
// print number alone

Kp at 1 h reported for this compound Clc1ccc2c(c1)N=C(N1CCNCC1)c1ccccc1N2 [NDMC] : 0.36

----------
- assay_text: Pharmacokinetics after single i.v. or oral dose in rats
- Assay type: in vivo, Sprague-Dawley rats
- particulars: male, Sprague-Dawley, rat, plasma, iv, 1 mg/kg, after NDMC i.v. 1 mg/kg, read-out: Average AUC (converted)
observable: AUC (ng·h/mL)
Answer with a number only, understood to be in ng·h/mL.

AUC reported for this molecule Clc1ccc2c(c1)N=C(N1CCNCC1)c1ccccc1N2 : 456

----------
- assay_text: Pharmacokinetics after i.v. or oral dose in dogs
- Type: in vivo, beagle dogs
- particulars: beagle, dog, serum, iv, 1 mg/kg
observable: AUC (ng·h/mL)
Answer with a number only, understood to be in ng·h/mL.

AUC reported for this compound Clc1ccc2c(c1)N=C(N1CCNCC1)c1ccccc1N2 : 135

----------
- assay_text: Pharmacokinetics after i.v. or oral dose in dogs
- Type: in vivo, beagle dogs
- particulars: beagle, dog, plasma, po, 10 mg/kg, Plasma concentration after NDMC administration, 60 min, NDMC p.o. 10 mg/kg
observable: concentration at 60 min (ng/mL)
Answer with a number only, understood to be in ng/mL.

concentration at 60 min reported for this molecule Clc1ccc2c(c1)N=C(N1CCNCC1)c1ccccc1N2 : 67

----------
- assay_text: Pharmacokinetics after i.v. or oral dose in dogs
- Type: in vivo, beagle dogs
- particulars: beagle, dog, serum, iv, 1 mg/kg
observable: Vd (L/kg)
Answer with a number only, understood to be in L/kg.

Vd reported for this molecule Clc1ccc2c(c1)N=C(N1CCNCC1)c1ccccc1N2 [NDMC] : 28.2

----------
- assayed_system: M1 muscarinic receptor (Homo sapiens, UniProt P11229)
- Sequence (P11229 1-460): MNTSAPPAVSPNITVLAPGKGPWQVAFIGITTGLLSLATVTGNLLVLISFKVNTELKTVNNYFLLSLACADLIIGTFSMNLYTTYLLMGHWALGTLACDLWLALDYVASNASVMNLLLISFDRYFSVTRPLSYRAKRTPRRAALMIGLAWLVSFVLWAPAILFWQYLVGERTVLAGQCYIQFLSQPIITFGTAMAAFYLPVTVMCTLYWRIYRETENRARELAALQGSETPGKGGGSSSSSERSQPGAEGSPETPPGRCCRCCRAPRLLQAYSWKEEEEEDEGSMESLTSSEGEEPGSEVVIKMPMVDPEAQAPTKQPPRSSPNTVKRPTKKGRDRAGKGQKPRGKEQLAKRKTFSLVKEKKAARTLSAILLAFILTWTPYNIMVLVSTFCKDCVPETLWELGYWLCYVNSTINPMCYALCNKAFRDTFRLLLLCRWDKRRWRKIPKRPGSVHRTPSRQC
observable: pKi
Worth noting: pKi values are minus log10 of concentrations stated in mol/L.

pKi reported for this compound Clc1ccc2c(c1)N=C(N1CCNCC1)c1ccccc1N2 : 7.30
